// melting point lookup, one value per entry
Measurement Label: melting point

In [3]: df
Out[3]:
                                    compound         result
 0     COc1ccccc1-c1ccc(C=C(C(C)=O)C(C)=O)o1  145 to 146 °C
 1                    Cc1nc(-c2ccc(Br)s2)no1    54 to 55 °C
 2                       COC(=O)c1scc(C)c1Cl    76 to 78 °C
 3            O=C(CBr)c1cc(-c2ccc(Cl)cc2)no1  157 to 158 °C
 4                     CN1CCN(Cc2ccccc2N)CC1    87 to 88 °C
 5                COc1cc(C=CC(=O)O)cc(OC)c1O  203 to 205 °C
 6     CCCCCCCCOc1ccc(NC(=O)c2ccc(OC)cc2)cc1  152 to 154 °C
 7                       NCc1cc2cc(Br)ccc2o1    39 to 40 °C
 8             Brc1sc(-c2ccccc2)nc1-c1ccccc1    88 to 89 °C
 9                         Cn1cc(Br)c(C=O)n1    71 to 72 °C
10        COC1=C(OC)/C(=C/CN=[N+]=[N-])OC1=O    55 to 57 °C
11  CCOC(=O)C12C(c3cc(Br)ccc3OP1(=O)OCC)C1(C(=O)OCC)C2c2cc(Br)ccc2OP1(=O)OCC (stereo unspecified)  272 to 274 °C
12  c1ccc(C(c2ccccc2)=P(c2ccccc2)(c2ccccc2)c2ccccc2)cc1  169 to 171 °C
13                      OCc1ccc(-n2cncn2)cc1  124 to 125 °C
14                      S=c1cc[nH]c(=S)[nH]1  279 to 281 °C
15                           O=C(CBr)c1cccs1  109 to 111 °C

----------
Measurement Label: melting point

>>> df
                                   molecule         result
0            c1ccc(Oc2ccc(Oc3ccccc3)cc2)cc1    73 to 77 °C
1       NNC(=O)c1cc2cc(OCc3ccccc3)ccc2[nH]1  219 to 221 °C
2  CCCCCCCCCCCCCCC(Br)C(=O)O (centres undefined)    52 to 56 °C
3            FC(F)(F)c1cc(Cl)c2cc(Br)ccc2n1   98 to 100 °C

----------
Response field label: string, one of criterion met (melting point strictly below 100 °C) or criterion not met.

In [3]: df
Out[3]:
                                   compound         class_name
0  COc1cc([C@@H](O)[C@H](CO)Oc2c(OC)cccc2OC)cc(OC)c1OC  criterion not met
1  Cn1c(=O)c(C2=NNC(=O)C2=NNc2ccncc2)c(O)c2ccccc21  criterion not met
2  CNC(C)C(O)c1ccc(O)cc1 (stereo unspecified)  criterion not met
3   CCc1oc2ccccc2c1C(=O)c1cc(Br)c(O)c(Br)c1  criterion not met
4                      CC(C)(C)[N+](=O)[O-]      criterion met
5            CC(=NNc1nc(C)cc(C)n1)c1ccccc1C  criterion not met
